Target: GST-Dm-Relish (Drosophila melanogaster, UniProt Q94527 99-473)
Sequence: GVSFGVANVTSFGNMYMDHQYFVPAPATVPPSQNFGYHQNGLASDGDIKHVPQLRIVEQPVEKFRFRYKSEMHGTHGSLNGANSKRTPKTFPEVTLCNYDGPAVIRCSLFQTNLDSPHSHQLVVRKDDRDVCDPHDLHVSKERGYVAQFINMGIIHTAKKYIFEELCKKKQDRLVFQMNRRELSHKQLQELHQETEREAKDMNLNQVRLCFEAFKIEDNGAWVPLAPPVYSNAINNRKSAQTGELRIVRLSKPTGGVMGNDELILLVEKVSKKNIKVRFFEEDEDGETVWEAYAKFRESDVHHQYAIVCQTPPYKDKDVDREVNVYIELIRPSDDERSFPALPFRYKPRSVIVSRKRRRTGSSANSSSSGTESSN
Assay: protein-binding microarray (PBM); PBM: ~300 nM protein, 6 mM HEPES pH 7.8, 80 mM KCl, 0.5 mM EDTA, 0.5 mM EGTA, 6% glycerol, 35 ng/ul poly-dIdC, 1% milk, 1 h, room temperature; Ap Aiptasia and Nv Nematostella (sea anemones) / Co Capsaspora / Aq Amphimedon (sponge) / Dm Drosophila / Hu human; RHD is the Rel homology domain; high values mean tight binding
Conditions: dsDNA, one strand shown
TEST_READOUT: binding signal (z-score)

{"SEQUENCE_TEXT": "CCGATTAACATCACGAAAATTCCTGATGTTAATCGGGTCTTGATTCGCTTGACGCTGCTG", "TEST_READOUT": "binding signal", "UNITS": "z-score", "RESULT_VALUE": 1.12}
{"SEQUENCE_TEXT": "CCGATTAACATCAGGGAGTTTTATGATGTTAATCGGGTCTTGATTCGCTTGACGCTGCTG", "TEST_READOUT": "binding signal", "UNITS": "z-score", "RESULT_VALUE": 5.65}
{"SEQUENCE_TEXT": "CCGATTAACATCAGGGGGGGCTATGATGTTAATCGGGTCTTGATTCGCTTGACGCTGCTG", "TEST_READOUT": "binding signal", "UNITS": "z-score", "RESULT_VALUE": 4.12}
{"SEQUENCE_TEXT": "CCGATTAACATCAGGGGGACTACTGATGTTAATCGGGTCTTGATTCGCTTGACGCTGCTG", "TEST_READOUT": "binding signal", "UNITS": "z-score", "RESULT_VALUE": 6.39}
{"SEQUENCE_TEXT": "CCGATTAACATCAGAGGAATTCCTGATGTTAATCGGGTCTTGATTCGCTTGACGCTGCTG", "TEST_READOUT": "binding signal", "UNITS": "z-score", "RESULT_VALUE": 2.63}
{"SEQUENCE_TEXT": "CCGATTAACATCAAGGGGGGGATTGATGTTAATCGGGTCTTGATTCGCTTGACGCTGCTG", "TEST_READOUT": "binding signal", "UNITS": "z-score", "RESULT_VALUE": 5.64}
{"SEQUENCE_TEXT": "CCGATTAACATCAAGGGGAAAATTGATGTTAATCGGGTCTTGATTCGCTTGACGCTGCTG", "TEST_READOUT": "binding signal", "UNITS": "z-score", "RESULT_VALUE": 4.19}
{"SEQUENCE_TEXT": "CCGATTAACATCACGGGGGGGGATGATGTTAATCGGGTCTTGATTCGCTTGACGCTGCTG", "TEST_READOUT": "binding signal", "UNITS": "z-score", "RESULT_VALUE": 5.35}
{"SEQUENCE_TEXT": "CCGATTAACATCAAATATTCCCTTGATGTTAATCGGGTCTTGATTCGCTTGACGCTGCTG", "TEST_READOUT": "binding signal", "UNITS": "z-score", "RESULT_VALUE": 3.18}
